meta.source: a melting point compilation (Tetko et al.; mined from patent text by program, amines drawn as free bases though some values may be those of a salt)

Below: a set of entries, each annotated with reported melting point.

Please review the following examples before continuing.
> print(dat)
                                   compound  quantity.kind   result.value
1  CCCOc1cc(OCCC)c2c(=O)c(OCCC)c(-c3ccccc3)oc2c1  melting point    90 to 93 °C
2     O=C1NCCN(c2ccc(OC(F)(F)C(F)F)cc2)C1=O  melting point  240 to 242 °C

Input line: If you can, please state the reported melting point value of `CCc1c(C(F)(F)F)nn(-c2ccc(S(N)(=O)=O)nc2)c1-c1ccc(-c2cscn2)c(F)c1` .
Output line: 182 to 185 °C

Input line: Also check `Cc1nc2ccccc2n1Cc1ccc(-n2c(C)nc3cnccc32)cc1`
Output line: 184 to 185 °C

Input line: Also check `O=C(O)Cc1cc(C(=O)c2ccc3cc(-c4ccccc4)[nH]c3c2)sc1-c1ccccc1`
Output line: 238 to 240 °C

Input line: Also check `Cn1cc(CS(C)(=O)=O)c(=O)c2cc(F)ccc21`
Output line: 200 to 205 °C

Input line: Also check `CC(C)(C)CCNC(=O)c1ccc(CC(C)(C)C)cc1`
Output line: 124 to 126 °C

====

Below: a set of entries, each annotated with reported melting point.

> print(dat)
                                   compound  quantity.kind  result.value
1  CCC(CC)Oc1ccc(/C=C/C(=O)Nc2ccccc2C(=O)O)cc1OC  melting point   82 to 85 °C

// moving on: another record for melting point
Input line: If you can, please state the reported melting point value of `CC(=O)c1cccc(NC(=O)c2cc(C(=O)Nc3cccc(C(C)=O)c3)cc(C(=O)Nc3cccc(C(C)=O)c3)c2)c1` .
Output line: 270 °C

====

Quantity Kind: melting point

Please review the following examples before continuing.
> print(dat)
                                   molecule  quantity.kind   result.value
1        CCCCCC(=O)NCCCC(=NNC(N)=S)c1ccccc1  melting point  125 to 127 °C
2  COCCC1(C(=O)N[C@@H](Cc2ccc(N3C(=O)c4ccc(C#N)cc4C3=O)cc2)C(=O)O)CCCC1  melting point  143 to 146 °C
3    CCOC(=O)c1c(=O)c2cc(F)c(F)cc2n2ccccc12  melting point         200 °C
4  CC(=O)Nc1nc(CCc2ccc(NC(N)=S)cc2)c(Cc2ccc(S(C)(=O)=O)cc2)s1  melting point  102 to 103 °C

Input line: If you can, please state the reported melting point value of OC(c1cccnn1)c1ccc(Cl)cc1Cl (stereo not given) .
Output line: 130 to 132 °C

Input line: Also check `O=c1[nH]c2cccnc2n1-c1ccc2c(c1)COC2`
Output line: 243 °C

====

Below: a set of entries, each annotated with reported melting point.

Please review the following examples before continuing.
> print(dat)
                                   compound   result.value
1  Cc1nnc2n1-c1ccc(C#C[Si](C)(C)C)cc1C(c1ccccc1F)=NC2  218 to 219 °C
2                 CC(=O)N(c1ccc(O)cc1)C(C)C  152 to 153 °C
3             N#Cc1ccccc1CSc1nc2cnccc2[nH]1  200 to 202 °C
4  COc1cc(OCC(=O)O)c(C)cc1SCc1ccc(OCc2ccc(C(F)(F)F)cc2)cc1         145 °C
5                CCCCNC(=S)Nc1ccc(NNC=O)cc1  129 to 131 °C
6    Clc1ccc2c3c(cccc13)C(NCCCCCn1ccnc1)=N2  132 to 134 °C
7  O=C(NO)C1(NS(=O)(=O)c2ccc(OCc3ccc(Cl)cc3Cl)cc2)CC1c1ccccc1 (stereo not drawn)  164 to 169 °C
8  C=Cc1cc(S(=O)(=O)c2ccc(N)cc2)cc(N2CCCC2)n1  181 to 182 °C

// moving on: another record for melting point
Input line: If you can, please state the reported melting point value of `Cc1ccc(S(=O)(=O)NCc2nc(C(C)C)c(Sc3cc(Cl)cc(Cl)c3)n2C)cc1` .
Output line: 85 to 87 °C

====

Below: a set of entries, each annotated with reported melting point.

> print(dat)
                                   compound  quantity.kind   result.value
1  CN1CCN(c2cccc3c2CC(C(=O)Nc2ccc(N4CCOCC4)cc2)C3)CC1 (stereo not given)  melting point  248 to 249 °C
2  COCNC(=O)OC(C(=O)OC)P(C)(C)=O (stereo not given)  melting point         101 °C
3         Cc1cc(I)cc2[nH]c(C(=O)O)cc(=O)c12  melting point         294 °C

Input line: If you can, please state the reported melting point value of `COc1cc2nc(N)nc(-c3cccc(Cl)c3)c2cc1OC` .
Output line: 242 to 245 °C

Input line: Also check `Cc1cc(C(C)(C)C)c(O)c(S(=O)(=O)Nc2ccc(C#N)cc2Cl)c1`
Output line: 101 to 105 °C

Input line: Also check `COc1cc([N+](=O)[O-])ccc1-c1cccc(C(=O)O)c1`
Output line: 88 to 88.5 °C

Input line: Also check `CCNC(=O)N(NC(=O)c1cccc(Cl)c1)C(C)(C)C`
Output line: 67 to 68 °C

Input line: Also check `COc1ncc([N+](=O)[O-])cc1C`
Output line: 95 to 96.5 °C

Input line: Also check `CCCn1cc(Cc2ccc(C(=O)O)cc2OC)c2cc(CCCC(=O)N(C)C)ccc21`
Output line: 117 to 118 °C

Input line: Also check CC(=O)c1ccc(OCC(C)(O)C(=O)Nc2ccc([N+](=O)[O-])c(C)c2)cc1 (stereo not given)
Output line: 153 to 155 °C

====

Quantity Kind: melting point

Please review the following examples before continuing.
> print(dat)
                                   molecule  quantity.kind   result.value
1  NC(C(=O)O)c1ccc(C(=O)O)cc1SCc1ccccc1 (stereo not given)  melting point         226 °C
2                      O=C(c1cccnc1)c1cccs1  melting point  90 to 91.5 °C
3  CC(C)(C)c1ccc(C(=O)Nc2cn3cc(-c4ccoc4)ccc3n2)cc1  melting point  258 to 259 °C
4         CS(=O)(=O)N(Cc1ccc(F)cc1)c1cccnc1  melting point    93 to 95 °C

Input line: If you can, please state the reported melting point value of `N#CCCNC(=O)c1cccc(-c2cccc3nn(Cc4cccc(C(F)(F)F)c4)cc23)c1` .
Output line: 187 to 188 °C

Input line: Also check `Cn1nc(CCc2cc(=O)[nH]c(N)n2)c2ccc(C(=O)NC[C@H](NS(=O)(=O)c3cccc4cnccc34)C(=O)O)cc21`
Output line: 122 to 125 °C

Input line: Also check Cn1cc(C(F)(F)F)nc1-c1ccc(OCC(O)CNCCOc2ccc(O)c(C(N)=O)c2)cc1 (stereo not given)
Output line: 195 to 197 °C

Input line: Also check CCOC(=O)C1=Cc2cc(C(=O)Cc3ccccc3)ccc2OC1C(F)(F)F (stereo not given)
Output line: 136 to 138 °C

====

Below: a set of entries, each annotated with reported melting point.

Please review the following examples before continuing.
> print(dat)
                                   compound   result.value
1  COc1ccc(CSC(=S)N2Cc3[nH]c4ccccc4c3CC2C(=O)O)cc1 (stereo unspecified)  195 to 196 °C
2  COC(=O)Nc1cc(OS(=O)(=O)c2ccc(C)cc2)nc(N)n1  188 to 190 °C
3                 O=C1CCOc2c1ccc1oc(Cl)cc21  144 to 146 °C
4  CCOc1c(OC)c(OC)cc(C(=O)OC)c1-c1c(C(=O)OC)cc(OC)c2c1OCO2    93 to 94 °C
5      Cc1cc(N2CCCC2)c([N+](=O)[O-])c(Cl)n1  151 to 156 °C

Input line: If you can, please state the reported melting point value of `COc1ccc(Cn2c(=O)oc(=O)c3cc(F)cnc32)cc1` .
Output line: 143 °C

Input line: Also check `Cc1c(OCC(F)(F)F)ccnc1CSc1nc2cc(OC(F)F)ccc2n1N`
Output line: 179 to 180 °C

Input line: Also check `Nc1nc(-c2ccccc2)c2cc(Cl)cc(Cl)c2n1`
Output line: 213 °C

Input line: Also check `CC(C)c1[nH]c2ccccc2c1C=C1SC(=S)N(CC(=O)O)C1=O`
Output line: 259 to 260 °C

Input line: Also check `CCc1c(-c2ccc(OCc3ccccc3)cc2)c2c(C(=O)O)c(C(=O)O)c3c(OC)ccc1n32`
Output line: 198 to 200 °C

Input line: Also check `Cn1c(CO)nc2cnccc21`
Output line: 285 to 290 °C
